Attribution: PubChem BioAssay AID504889

- tested target: MCHR1
- test: MCHR1 antagonist potency, late-stage follow-up, selectivity assay for GPR7 antagonist project, cell-based, fluorescence, dose response, set 2 (AID 504889)
- assay context: MCHR1-expressing cells, antagonist mode, run 1
metric: IC50

Please review the following examples before continuing.
1. COc1ccc(Oc2c(C)cnn(-c3ccc(C(C)C)cc3)c2=O)cc1; 9.81 µM
2. Cc1ccc(-n2ncc(Cl)c(Oc3ccc(OC(F)(F)F)cc3)c2=O)cc1; 2.9 µM

The reported IC50 value, MCHR1, for `COc1ccc(Oc2c(Cl)cnn(-c3cccc(C)c3)c2=O)cc1` reads 5.39 µM

----------
- tested target: MCHR1
- test: MCHR1 antagonist potency, late-stage follow-up, selectivity assay for GPR7 antagonist project, cell-based, fluorescence, dose response, set 2 (AID 504889)
- assay context: MCHR1-expressing cells, antagonist mode, run 2
Calls of active or inactive are those of the source. How the calls were made is not given here.
Hello, when you answer, please use one of the following outcomes: label 1 (active), label 0 (inactive)

Use these answered entries as a reference point.
1. COc1ccc(Oc2c(-c3cccs3)cnn(-c3ccc(C)cc3)c2=O)cc1; label 0
2. COc1ccc(Oc2c(Cl)cnn(-c3cccc(C)c3)c2=O)cc1; label 1
3. COc1ccc(Oc2c(Cl)cnn(-c3ccc(C(C)C)cc3)c2=O)cc1; label 1
4. COc1ccc(Oc2c(Cl)cnn(-c3cc(C)cc(C)c3)c2=O)cc1; label 1
5. COc1ccc(Oc2c(Cl)cnn(-c3ccc(C)cc3)c2=O)cc1; label 0
6. CCC(C)c1ccc(-n2ncc(Cl)c(Oc3ccc(OC)cc3)c2=O)cc1 (centres undefined); label 1
7. COc1ccc(Oc2c(C3CC3)cnn(-c3ccc(C)cc3)c2=O)cc1; label 0
8. COc1ccc(Oc2c(Cl)cnn(-c3ccc(C(C)(C)C)cc3)c2=O)cc1; label 1
9. COc1ccc(Oc2c(Br)cnn(-c3ccc(C)cc3)c2=O)cc1; label 0
10. Cc1ccc(-n2ncc(Cl)c(Oc3ccc(CO)cc3)c2=O)cc1; label 0

Req: Hi, do you know how `COc1ccc(Oc2c(Cl)cnn(-c3cccc4ccccc34)c2=O)cc1` came out in this test?
Resp: label 1

Req: // outcome(item) with item = `COc1ccc(Oc2c(C)cnn(-c3ccc(C(C)C)cc3)c2=O)cc1`
Resp: label 1

Req: Outcome logged for `Cc1ccc(-n2ncc(Cl)c(Oc3ccc(C(F)(F)F)cc3)c2=O)cc1` in this assay:
Resp: label 1

Req: What is the recorded call for this molecule in the test? `CCOc1ccc(Oc2c(Cl)cnn(-c3ccc(C)cc3)c2=O)cc1`
Resp: label 1

----------
- tested target: MCHR1
- test: MCHR1 antagonist potency, late-stage follow-up, selectivity assay for GPR7 antagonist project, cell-based, fluorescence, dose response, set 2 (AID 504889)
- assay context: MCHR1-expressing cells, antagonist mode, run 3
metric: pIC50
Just so you know, pIC50 here is -log10 of the concentration in molar units; reply with that number alone.

// pIC50 value for `COc1ccc(Oc2c(Cl)cnn(-c3cc(C)cc(C)c3)c2=O)cc1` : 5.57

----------
- tested target: MCHR1
- test: MCHR1 antagonist potency, late-stage follow-up, selectivity assay for GPR7 antagonist project, cell-based, fluorescence, dose response, set 2 (AID 504889)
- assay context: MCHR1-expressing cells, antagonist mode, run 2
Calls of active or inactive are those of the source. How the calls were made is not given here.
Write down one outcome, taken from active, inactive

Record excerpt, results attached:
1. COc1ccc(Oc2c(-c3ccccc3)cnn(-c3ccc(C)cc3)c2=O)cc1; inactive
2. COc1ccc(Oc2c(C#N)cnn(-c3ccc(C(C)C)cc3)c2=O)cc1; active
3. CCc1ccc(Oc2c(Cl)cnn(-c3ccc(C)cc3)c2=O)cc1; active

Req: For `Cc1ccc(-n2ncc(Cl)c(Oc3ccc(OC(F)(F)F)cc3)c2=O)cc1` , what call appears in the results of this test?
Resp: active
